FYI, the data here is from PubChem BioAssay (NCI).

- Test system: HCT-116 colon
- assay-method-text: NCI tumour cell line growth inhibition, 48 h; in the data active = GI50 below about 0.43 µM; inactive = the rest
Residues, ends and D or L forms follow the SMILES beside them. *: point of attachment. Boc = CC(C)(C)OC(=O)*
Allowed answers: active, inactive

Check out these entries, answers already filled in.
# compound, class-assignment
rows = [
    ("COc1ccc(C(=O)c2cc(OC)c3c(c2)OCO3)cc1O", "active"),
    ("O=C(Nc1ccc(CN2CCOCC2)cc1)c1ccc(-c2cc(Cl)ccc2Cl)o1", "inactive"),
    ("CCN1CCN(c2cc(C)nc(N(CCNc3ccnc4cc(Cl)ccc34)Cc3ccc4c(c3)OCO4)n2)CC1", "inactive"),
    ("CN1CCN(CCCOc2ccc3nc(Nc4cc(Cl)cc(Cl)c4)ccc3c2)CC1", "inactive"),
    ("COC(=O)CNC(=O)C(Cc1ccccc1)NC(=O)C(Cc1ccccc1)NC(=O)OC(C)(C)C (stereo not drawn) (Boc-Phe-Phe-Gly-OMe; configuration not given here)", "inactive"),
    ("CC(=O)O[C@H]1CCC2(C)C(=CCC3C2CCC2(C)/C(=N/OC(=O)c4ccc(N(CCCl)CCCl)cc4)CCC32)C1 (stereo partly specified)", "inactive"),
    ("Nc1nc(/C=C\\c2ccc([N+](=O)[O-])cc2)nc(N2CCN(c3ccccc3)CC2)n1", "inactive"),
    ("CCCS(=O)(=O)Nc1ccc(F)c(C(=O)c2c[nH]c3ncc(Cl)cc23)c1F", "inactive"),
]

Q: Would you mind telling me which call this test gave O=C1Nc2cc(Cl)ccc2/C1=C\c1c(-c2ccc(F)cc2)nc2ccccn12 ?
A: inactive

Q: Test call for this compound, please: O=C1c2ccccc2-c2nnc(-c3ccc(Br)cc3)cc21
A: inactive

Q: Which outcome was assigned to Fc1cnc(NC2CC2)nc1-c1cnc2ccc(N3CCOCC3)cn12 in this test?
A: active
